- Tested on: Hepatocyte
- Protocol Summary: Antihepatotoxic activity against carbon tetrachloride-induced cytotoxicity in rat hepatocytes assessed as GPT level at 0.1 mg/mL relative to control
- Format: functional
Measured Attribute: Activity (%)
Give bare numbers, in %.

As a guide, the following entries are already answered.
Input line: Give recorded Activity. CC1=CCC[C@H](C)[C@@]12CC[C@@H](C(C)(C)O)C2 [HINESOL]
Output line: 62

Input line: Give recorded Activity. OCc1ccco1 [FURFURYL ALCOHOL]
Output line: 101

Input line: Give recorded Activity. C=C1CCC[C@]2(C)Cc3occ(C)c3C[C@@H]12 [ATRACTYLON]
Output line: 53

Now examine the next entry.
Input line: Give recorded Activity. C=C1CCC[C@]2(C)CC[C@@H](C(C)(C)O)C[C@@H]12 [BETA-EUDESMOL]
Output line: 70

Value source: ChEMBL document CHEMBL1145669
